This collection of values is drawn from patent US5405843A.

Test system: Adriamycin resistant strain 2780 AD cells of human ovarian cancer A2780 cells
ASSAY NAME: Potentiating effect on incorporation of 3H-vincristine into adriamycin-resistant cancer cells
Assay type: cell-based
CONDITION DETAILS: Homo sapiens, 2780AD, 2 h, compound 1 μg/ml, 20 nM 3H-vincristine, control = 100, read-out: 3H-vincristine accumulation
# if measured activity at 1 µg/mL < 700%: condition met  # else: condition not met

[in] Below 700% on activity at 1 µg/mL? Entry OC(COc1cccc2ncccc12)CN1CCN(C2c3ccccc3Oc3ccccc32)CC1 (centres unmarked)
[out] condition met

[in] Below 700% on activity at 1 µg/mL? Entry COc1ccc(C(c2cccc(OC)c2OC)N2CCN(CC(O)COc3cccc4ncccc34)CC2)cc1OC (centres unmarked)
[out] condition not met

[in] Below 700% on activity at 1 µg/mL? Entry O=[N+]([O-])c1ccc(OCC(O)CN2CCN(C(c3ccccc3)c3ccccc3)CC2)c2cccnc12 (centres unmarked)
[out] condition met

[in] Below 700% on activity at 1 µg/mL? Entry OC(COc1cccc2ncccc12)CN1CCN(C2c3ccccc3CCc3ccccc32)CC1 (centres unmarked)
[out] condition met

[in] Below 700% on activity at 1 µg/mL? Entry Cc1ccc(OCC(O)CN2CCN(C(c3ccccc3)c3ccccc3)CC2)c2cccnc12 (centres unmarked)
[out] condition met

[in] Below 700% on activity at 1 µg/mL? Entry Cc1ccc2ncccc2c1OCC(O)CN1CCN(C(c2ccccc2)c2ccccc2)CC1 (centres unmarked)
[out] condition not met

[in] Below 700% on activity at 1 µg/mL? Entry COc1ccc2c(OCC(O)CN3CCN(C(=O)C(c4ccccc4)c4ccccc4)CC3)cccc2n1 (centres unmarked)
[out] condition met

[in] Below 700% on activity at 1 µg/mL? Entry CN(CCC=C1c2ccccc2CCc2ccccc21)CC(O)COc1cccc2ncccc12 (centres unmarked)
[out] condition met

====

System: Vincristine-resistant strain P388/VCR cells of mouse leukemia P388 cells
ASSAY NAME: Potentiating effect on vincristine in mice having vincristine-resistant mouse leukemia (survival)
Type: in vivo, mouse (female CDFI mice)
CONDITION DETAILS: compound 30 mg/kg + vincristine 100 ug/kg, peritoneal, once a day for 5 days; control = 100
I'd appreciate it if you could supply T/C (rate of life prolongation) values for the items below.
Your answer is read as %, so omit the unit and give the number.

[in] Record request: T/C (rate of life prolongation) value, item "c1ccc2c(c1)CCc1ccccc1C2N1CCN(CCCOc2cccc3ncccc23)CC1"
[out] 126

[in] Record request: T/C (rate of life prolongation) value, item Cc1cc(C(F)(F)F)nc2cccc(OCC(O)CN3CCN(C(=O)C(c4ccccc4)c4ccccc4)CC3)c12 (centres unmarked)
[out] 120

[in] Record request: T/C (rate of life prolongation) value, item OC(CNc1cccc2ncccc12)CN1CCN(C(c2ccccc2)c2ccccc2)CC1 (centres unmarked)
[out] 119

[in] Record request: T/C (rate of life prolongation) value, item OC(COc1cccc2ncccc12)CN1CCC(C2(O)c3ccccc3CCc3ccccc32)CC1 (centres unmarked)
[out] 120

[in] Record request: T/C (rate of life prolongation) value, item CCN(CCN(CC)C(c1ccccc1)c1ccccc1)CC(O)COc1cccc2ncccc12 (centres unmarked)
[out] 112

[in] Record request: T/C (rate of life prolongation) value, item OC(COc1cccc2nc(Cl)ccc12)CN1CCN(C(c2ccccc2)c2ccccc2)CC1 (centres unmarked)
[out] 120

[in] Record request: T/C (rate of life prolongation) value, item OC(COc1cccc2nc(Cl)ccc12)CN1CCN(C2c3ccccc3CCc3ccccc32)CC1 (centres unmarked)
[out] 131

[in] Record request: T/C (rate of life prolongation) value, item Cc1cc(C)c2c(OCC(O)CN3CCN(C(=O)C(c4ccccc4)c4ccccc4)CC3)cccc2n1 (centres unmarked)
[out] 111

[in] Record request: T/C (rate of life prolongation) value, item OC(COc1cccc2ncccc12)CN1CCN(C(c2ccccc2)c2ccc(Cl)cc2)CC1 (centres unmarked)
[out] 130

[in] Record request: T/C (rate of life prolongation) value, item OC(COc1cccc2ncccc12)CN1CCC(C2c3ccccc3CCc3ccccc32)CC1 (centres unmarked)
[out] 123

[in] Record request: T/C (rate of life prolongation) value, item OC(COc1cccc2ncccc12)CN1CCC(=C(c2ccccc2)c2ccccc2)CC1 (centres unmarked)
[out] 139

[in] Record request: T/C (rate of life prolongation) value, item OC(COc1cccc2ncccc12)CN1CCN(C2c3ccccc3COc3ccccc32)CC1 (centres unmarked)
[out] 128

[in] Record request: T/C (rate of life prolongation) value, item OC(COc1cccc2ncccc12)CN1CCN(C(c2ccccc2)c2ccccc2)CC1 (centres unmarked)
[out] 114

[in] Record request: T/C (rate of life prolongation) value, item "c1ccc(C(c2ccccc2)N2CCN(CCCOc3cccc4ncccc34)CC2)cc1"
[out] 110

[in] Record request: T/C (rate of life prolongation) value, item OC(COc1cccc2cnccc12)CN1CCN(C2c3ccccc3CCc3ccccc32)CC1 (centres unmarked)
[out] 123

[in] Record request: T/C (rate of life prolongation) value, item Cc1cc(C)c2c(OCC(O)CN3CCN(C4c5ccccc5COc5ccccc54)CC3)cccc2n1 (centres unmarked)
[out] 121

[in] Record request: T/C (rate of life prolongation) value, item OC(COc1cccc2ncccc12)CN1CCN(CC(c2ccccc2)c2ccccc2)CC1 (centres unmarked)
[out] 115

====

Tested on: Adriamycin resistant strain 2780 AD cells of human ovarian cancer A2780 cells
ASSAY NAME: Potentiating effect on incorporation of 3H-vincristine into adriamycin-resistant cancer cells
Assay type: cell-based
CONDITION DETAILS: Homo sapiens, 2780AD, 2 h, compound 1 μg/ml, 20 nM 3H-vincristine, control = 100, read-out: 3H-vincristine accumulation
# if measured activity at 1 µg/mL < 500%: Yes  # else: No

[in] Below 500% on activity at 1 µg/mL? Entry OC(COc1cccc2ncccc12)CN1CCN(C2c3ccccc3C=Cc3ccccc32)CC1 (centres unmarked) [Example 20]
[out] No

[in] Below 500% on activity at 1 µg/mL? Entry OC(COc1cccc2ncccc12)CN1CCC(=C(c2ccccc2)c2ccccc2)CC1 (centres unmarked) [Example 13]
[out] No

[in] Below 500% on activity at 1 µg/mL? Entry OC(COc1cccc2ncccc12)CN1CCN(C(c2ccccc2)c2ccccn2)CC1 (centres unmarked) [Example 15]
[out] No

[in] Below 500% on activity at 1 µg/mL? Entry Cc1cc(C)c2c(OCC(O)CN3CCN(C4c5ccccc5CCc5ccccc54)CC3)cccc2n1 (centres unmarked) [Example 22]
[out] No

[in] Below 500% on activity at 1 µg/mL? Entry OC(COc1cccc2cnccc12)CN1CCCN(C(c2ccccc2)c2ccccc2)CC1 (centres unmarked) [Example 45]
[out] Yes

[in] Below 500% on activity at 1 µg/mL? Entry OC(CNCCC(c1ccccc1)c1ccccc1)COc1cccc2ncccc12 (centres unmarked) [Example 69]
[out] No

[in] Below 500% on activity at 1 µg/mL? Entry OC(COc1nccc2ccccc12)CN1CCN(C(c2ccccc2)c2ccccc2)CC1 (centres unmarked) [Example 48]
[out] Yes

[in] Below 500% on activity at 1 µg/mL? Entry OC(COc1cccc2ncccc12)CN1CCC(C(O)(c2ccccc2)c2ccccc2)CC1 (centres unmarked) [Example 7]
[out] No

[in] Below 500% on activity at 1 µg/mL? Entry COc1ccc2c(OCC(O)CN3CCN(C(c4ccccc4)c4ccccc4)CC3)cccc2n1 (centres unmarked) [Example 42]
[out] No

[in] Below 500% on activity at 1 µg/mL? Entry OC(CSc1cccc2ncccc12)CN1CCN(C2c3ccccc3CCc3ccccc32)CC1 (centres unmarked) [Example 75]
[out] No

[in] Below 500% on activity at 1 µg/mL? Entry O=C(N1CCN(CC(O)COc2cccc3ncccc23)CC1)N1c2ccccc2CCc2ccccc21 (centres unmarked) [Example 60]
[out] No

[in] Below 500% on activity at 1 µg/mL? Entry OC(COc1cccc2ncccc12)CN1CCC(C2(O)c3ccccc3CCc3ccccc32)CC1 (centres unmarked) [Example 78]
[out] No

[in] Below 500% on activity at 1 µg/mL? Entry CCN(CCN(CC)C(c1ccccc1)c1ccccc1)CC(O)COc1cccc2ncccc12 (centres unmarked) [Example 10]
[out] No

[in] Below 500% on activity at 1 µg/mL? Entry Cc1cc(C)c2c(OCC(O)CN3CCN(C(=O)N4c5ccccc5CCc5ccccc54)CC3)cccc2n1 (centres unmarked) [Example 61]
[out] No

[in] Below 500% on activity at 1 µg/mL? Entry CSc1ccc2c(OCC(O)CN3CCN(C(=O)C(c4ccccc4)c4ccccc4)CC3)cccc2n1 (centres unmarked) [Example 65]
[out] Yes

[in] Below 500% on activity at 1 µg/mL? Entry c1ccc(C(c2ccccc2)N2CCN(CCCCOc3cccc4ncccc34)CC2)cc1 [Example 33]
[out] Yes
